assay: in vitro; details: rat, gh3-tre-luc cells, AC50 (uM) modified / 1000, Tox21_110001=Tox21_111146; viability, 1 nM T3 present, 24 h

molecule | CC50 at 24 h
Oc1ccc(Cl)cc1Cc1ccccc1 [Clorophene] | 23.9 µM

---

assay: in vitro; details: rat, gh3-tre-luc cells, AC50 (uM) modified / 1000, Tox21_110001=Tox21_111849; viability, 1 nM T3 present, 24 h

smilesRepresentation | CC50 at 24 h
N#CC1(N2CCCCC2)CCCCC1 | > 50 µM

---

tested on: GH3-TRE-Luc cell line; settings: read-out: AC50 (uM) modified / 1000; Tox21_110001=Tox21_303391; viability, 1 nM T3 present, 24 h
measuredQuantity: CC50 (µM)

compound | reportedResult
Clc1ccc(COC(Cn2ccnc2)c2ccc(Cl)cc2Cl)cc1 (stereo not shown) [Econazole nitrate] | 29.6

---

experiment: in vitro; details: rat, gh3-tre-luc cells, AC50 (uM) modified / 1000

compound | CC50 at 24 h
CCCCCCCC[Si](OCC)(OCC)OCC [Triethoxyoctylsilane] | > 90 µM
O=C(O)[C@@H](O)[C@H](O)[C@H](O)[C@@H](O)C(=O)O [Mucic acid] | > 50 µM
CC(COc1ccccc1)NN (centres unmarked) [Phenoxypropazine] | > 50 µM
CCc1nnc(NS(=O)(=O)c2ccc(N)cc2)s1 [Sulfaethidole] | > 50 µM
CC(C)c1c(CN(C)C(C)Cc2ccccc2)n(C)n(-c2ccccc2)c1=O (centres unmarked) [Famprofazone] | > 20 µM

---

assay: in vitro; conditions: rat, gh3-tre-luc cells, AC50 (uM) modified / 1000, Tox21_110001=Tox21_202864; viability, 1 nM T3 present, 24 h

compound | CC50 at 24 h
CCCCCCCCCBr [n-Nonyl bromide] | > 90 µM

---

assay: in vitro; settings: rat, gh3-tre-luc cells, AC50 (uM) modified / 1000, Tox21_110001=Tox21_200822; viability, 1 nM T3 present, 24 h

smilesRepresentation | CC50 at 24 h
C[N+](=O)[O-] | > 90 µM

---

experiment: in vitro; conditions: rat, gh3-tre-luc cells, AC50 (uM) modified / 1000
Structures can show the parent of a compound that is named as a salt.

compound | CC50 at 24 h
CN[C@@H]1[C@H](O[C@H]2[C@H](O[C@H]3[C@H](O)[C@@H](O)[C@H](NC(=N)N)[C@@H](O)[C@@H]3NC(=N)N)O[C@@H](C)[C@]2(O)CO)O[C@@H](CO)[C@H](O)[C@H]1O [Dihydrostreptomycin sulfate] | > 50 µM
OCCCC1CCCCC1 [3-Cyclohexylpropan-1-ol] | > 90 µM
ClC(Cl)(Cl)c1ccccc1 [Benzotrichloride] | > 90 µM
O=C(O)CCC(=O)C(=O)O [alpha-Ketoglutaric acid] | > 90 µM
COCCOC[C@H](CC1(C(=O)N[C@H]2CC[C@@H](C(=O)O)CC2)CCCC1)C(=O)Oc1ccc2c(c1)CCC2 [Candoxatril] | > 90 µM

---

assay: in vitro; details: rat, gh3-tre-luc cells, AC50 (uM) modified / 1000, Tox21_110001=Tox21_303415; viability, 1 nM T3 present, 24 h

smilesRepresentation | CC50 at 24 h
c1ccc2c(c1)sc1ccccc12 | > 90 µM

---

tested on: GH3-TRE-Luc cell line; settings: read-out: AC50 (uM) modified / 1000; Tox21_110001=Tox21_303456; viability, 1 nM T3 present, 24 h
Where a name gives a salt, the structure may show the parent alone.
measuredQuantity: CC50

compound | reportedResult
CN(C)CCC(c1ccc(Cl)cc1)c1ccccn1 (stereo not shown) [Chlorpheniramine maleate] | 41.3 µM

---

assay: in vitro; details: rat, gh3-tre-luc cells, AC50 (uM) modified / 1000, Tox21_110001=Tox21_111223; viability, 1 nM T3 present, 24 h
Where a name gives a salt, the structure may show the parent alone.

compound | CC50 at 24 h
C[C@]12CC[C@H](OS(=O)(=O)O)CC1=CC[C@@H]1[C@@H]2CC[C@]2(C)C(=O)CC[C@@H]12 [Sodium prasterone sulfate dihydrate] | > 50 µM

---

assay: in vitro; settings: rat, gh3-tre-luc cells, AC50 (uM) modified / 1000, Tox21_110001=Tox21_301299; viability, 1 nM T3 present, 24 h

molecule | CC50 at 24 h
CC1OC(C)OC(C)O1 (stereo not shown) | > 90 µM

---

assay: in vitro; settings: rat, gh3-tre-luc cells, AC50 (uM) modified / 1000, Tox21_110001=Tox21_110905; viability, 1 nM T3 present, 24 h

compound | CC50 at 24 h
C=C(C)[C@H]1CN[C@H](C(=O)O)[C@H]1CC(=O)O [Kainic acid] | > 50 µM

---

assay: in vitro; conditions: rat, gh3-tre-luc cells, AC50 (uM) modified / 1000, Tox21_110001=Tox21_200290; viability, 1 nM T3 present, 24 h

compound | CC50 at 24 h (µM)
ClC1=C(Cl)C2(Cl)C3C(Cl)C(Cl)CC3C1(Cl)C2(Cl)Cl (stereo not shown) | 27.8

---

experiment: in vitro; conditions: rat, gh3-tre-luc cells, AC50 (uM) modified / 1000
Counter-ions that a name gives are not always drawn.
Recorded CC50 at 24 h values for a group of compounds are listed next.
measuredQuantity: CC50 at 24 h

compound | reportedResult
C[C@H](O)[C@H]1CC[C@H]2[C@@H]3CC[C@@H]4C[C@H](O)CC[C@]4(C)[C@H]3CC[C@]12C | > 50 µM
CCc1c(C)[nH]c2c1C(=O)C(CN1CCOCC1)CC2 (centres unmarked) [Molindone hydrochloride] | > 20 µM
CCOP(=S)(OCC)Oc1ccc([N+](=O)[O-])cc1 | > 90 µM
CCCCOc1cc(C(=O)OCCN(CC)CC)ccc1N [Benoxinate hydrochloride] | > 20 µM
C=CC(=O)OCCCCOC(=O)C=C [1,4-Butanediol diacrylate] | 17.5 µM
CN(C)CCCNCCCN(C)C | > 90 µM
O=[N+]([O-])c1c2ccccc2cc2ccccc12 | > 90 µM
Oc1ccc(Cl)cc1 | > 90 µM
CCNCC | > 100 µM
CCC1(c2ccccc2)C(=O)NC(=O)NC1=O | > 90 µM
ClC(Cl)(Cl)Cl [Carbon tetrachloride] | > 90 µM

---

experiment: in vitro; details: rat, gh3-tre-luc cells, AC50 (uM) modified / 1000

compound | CC50 at 24 h
C=C[C@@]1(C)CC(=O)[C@]2(O)[C@@]3(C)[C@@H](O)CCC(C)(C)[C@@H]3[C@H](O)[C@H](OC(C)=O)[C@@]2(C)O1 | > 90 µM
CNS(=O)(=O)Cc1ccc2[nH]cc(CCN(C)C)c2c1 | > 50 µM
CC(C)OC(=O)Nc1cccc(Cl)c1 | > 90 µM
C=C(C)[C@@H]1CC=C(C)CC1 [(S)-Limonene] | > 90 µM
ClCOCCl | > 90 µM

---

test: in vitro; details: rat, gh3-tre-luc cells, AC50 (uM) modified / 1000
Counter-ions that a name gives are not always drawn.

compound | CC50 at 24 h
C=CCOCC(O)CO (stereo not shown) [Glycerol 1-allylether] | > 90 µM
OC/C(Br)=C(\Br)CO [(2E)-2,3-Dibromo-2-butene-1,4-diol] | > 90 µM
O=C1C(CC[S+]([O-])c2ccccc2)C(=O)N(c2ccccc2)N1c1ccccc1 (stereo not shown) [Sulfinpyrazone] | > 20 µM
C#C[C@]1(O)CC[C@H]2[C@@H]3CCC4=CC(=O)CC[C@]4(C)[C@H]3CC[C@@]21C [Ethisterone] | > 90 µM
O=C1C=CC(=O)N1c1ccc(Cc2ccc(N3C(=O)C=CC3=O)cc2)cc1 [Bismaleimide] | 6.41 µM
COc1ccc(C(=O)/N=c2\[nH]c3ccccc3c(NCc3ccccc3)c2C#N)cc1 [SSR161421] | > 90 µM
CCCCCCCCCCCCCCOS(=O)(=O)O [Sodium myristyl sulfate] | 32 µM
C#C[C@]1(O)CC[C@H]2[C@@H]3CCC4=CCCC[C@@H]4[C@H]3C(=C)C[C@@]21CC [Desogestrel] | 34.9 µM
c1ccc(/N=N/c2ccccc2)cc1 [Azobenzene] | > 90 µM
O=C(Nc1ccccc1-c1ccc(Cl)cc1)c1cccnc1Cl [Boscalid] | > 100 µM
CC(=O)Oc1ccc(C(=C2CCCCC2)c2ccc(OC(C)=O)cc2)cc1 [Cyclofenil] | > 50 µM
CC1CC(=O)NN=C1c1ccc(NCC(C)(C)NCC(O)COc2cc(Cl)ccc2C#N)cc1 (stereo not shown) [Oberadilol] | > 50 µM
Cc1c(C(C)C)c(=O)n(-c2ccccc2)n1C [Propyphenazone] | > 50 µM
c1ccc(SSc2ccccc2)cc1 [Diphenyl disulfide] | > 90 µM
COC(=O)N[C@H](C(=O)N[C@@H](Cc1ccccc1)[C@@H](O)CN(Cc1ccc(-c2ccccn2)cc1)NC(=O)[C@@H](NC(=O)OC)C(C)(C)C)C(C)(C)C [Atazanavir] | > 50 µM
CN(C(=O)C(Cl)Cl)c1ccc(OC(=O)c2ccco2)cc1 [Diloxanide furoate] | > 50 µM
O=CCCCC=O [Glutaraldehyde] | > 90 µM
COC(=O)C1=C(C)NC(COC(N)=O)=C(C(=O)OC(C)C)C1c1cccc(Cl)c1Cl (stereo not shown) [Lemildipine] | 25.8 µM
NC(=O)NC(=O)Cc1ccccc1 [Phenacemide] | > 50 µM
CCCOCC(C)O (stereo not shown) [1-Propoxy-2-propanol] | > 90 µM
Nc1ccc(-c2ccc(F)cc2)cc1 [4'-Fluoro-4-aminodiphenyl] | > 90 µM
N=C(N)NCCC[C@H](N)C(=O)O [L-Arginine] | > 50 µM
O=C1c2ccccc2C(=O)N1CCl | > 90 µM
O=C(O)CC(C(=O)O)C(CC(=O)O)C(=O)O (stereo not shown) [1,2,3,4-Butanetetracarboxylic acid] | > 90 µM
COC(=O)/C=C\C(=O)O | > 90 µM
CCCN(CCC)C(=O)SCC [EPTC] | > 100 µM
COC(=O)c1sccc1S(N)(=O)=O | > 90 µM
ClC(Cl)c1ccccc1 [Benzal chloride] | > 90 µM
CC(C)CCOC(=O)c1ccc(N(C)C)cc1 [Padimate] | > 50 µM
O=C(OCc1ccccc1)C(=O)OCc1ccccc1 [Dibenzyl oxalate] | > 90 µM
C(COCC1CO1)OCC1CO1 (stereo not shown) [Ethylene glycol diglycidyl ether] | > 90 µM
CCOC(=O)NCCOc1ccc(Oc2ccccc2)cc1 [Fenoxycarb] | > 90 µM
Cc1cc(N)n(-c2ccccc2)n1 [3-Methyl-1-phenyl-1H-pyrazol-5-amine] | > 90 µM
CN1CCN2c3ncccc3Cc3ccccc3C2C1 (stereo not shown) [Mirtazapine] | > 50 µM
Cc1c(O)cc2c(c1C)O[C@](C)(CCC[C@H](C)CCC[C@H](C)CCCC(C)C)CC2 [(+)-gamma-Tocopherol] | > 50 µM
CCC1(CCC(C)C)C(=O)NC(=O)NC1=O [Amobarbital] | > 90 µM
COc1cc(C)cc(O)c1 [3-Methoxy-5-methylphenol] | > 90 µM
CC(CCO)CCc1ccccc1 (stereo not shown) [3-Methyl-5-phenylpentan-1-ol] | > 90 µM
O=C1OC(=O)C2C3C=CC(C3)C12 (stereo not shown) [2-Norbornene-5,6-dicarboxylic anhydride] | > 90 µM
COC(=O)/C=C(\C)CCC=C(C)C [Methyl geranate] | > 90 µM

Every entry's value here was drawn from paper PMC6792352.
